Reported pIC50 values for the following compounds.
tested.on: Aldose reductase (Rattus norvegicus)
Construct: Aldose reductase is purified from rat lenses; from tissue; host or cells: rat lens
method.summary: Inhibitory activity against aldose reductase purified from rat lenses (absorbance at 340 nm)
Format: biochemical
assay.conditions: pH 6.2, DL-glyceraldehyde 4×10^-4 M, NADPH 5×10^-5 M; read-out: IC50 (molar concentration producing 50% inhibition of aldose reductase)
Note: pIC50 values are expressed as the negative base-10 logarithm of concentration in M.

Past entries and their recorded results:
compound	test.value
CC(=O)Oc1ccccc1C1SC[C@@H](C(=O)O)N1C(=O)CCSSCCC(=O)N1C(c2ccccc2OC(C)=O)SC[C@H]1C(=O)O (stereo partly drawn)	6.06
C[C@H](CSSC[C@@H](C)C(=O)N1C(c2cc(Cl)ccc2O)SC[C@H]1C(=O)O)C(=O)N1C(c2cc(Cl)ccc2O)SC[C@H]1C(=O)O (stereo partly drawn)	6.19
O=C(O)[C@@H]1CSC(c2ccccc2O)N1C(=O)CCCSSCCCC(=O)N1C(c2ccccc2O)SC[C@H]1C(=O)O (stereo partly drawn)	7.02

Q: Could you share what pIC50 was measured for O=C(O)[C@@H]1CSC(c2ccccc2O)N1C(=O)CCSSCC1CCCO1 (stereo partly drawn) , tested on Aldose reductase (Rattus norvegicus)?
Ans: 6.08

Q: Request body: readout pIC50, system Aldose reductase (Rattus norvegicus), query O=C(O)[C@@H]1CSC(c2ccccc2)N1C(=O)CCSSCCC(=O)N1C(c2ccccc2)SC[C@H]1C(=O)O (stereo partly drawn) . Return the value.
Ans: 6.70

Q: Item: O=C(O)[C@@H]1CSC(c2cccc(O)c2)N1C(=O)CCSSCCC(=O)N1C(c2cccc(O)c2)SC[C@H]1C(=O)O (stereo partly drawn) Test system: Aldose reductase (Rattus norvegicus) Read-out: pIC50 Value: ?
Ans: 6.14
